Numbers sourced from patent US9585988B2.

assay_protocol: Pocket concentration of antibiotic after implantation
Format: in vivo
setup_conditions: other: implantation, 6 h, Right
So I've got a bunch of compounds here, and I need their concentration at 6 h values.
Give just the number in µg/mL; leave the unit off.

GET /values?readout=concentration at 6 h&item= CN(C)c1ccc(O)c2c1C[C@H]1C[C@H]3[C@H](N(C)C)C(O)=C(C(N)=O)C(=O)[C@@]3(O)C(O)=C1C2=O [Minocycline] 207

GET /values?readout=concentration at 6 h&item= CO[C@H]1/C=C/O[C@@]2(C)Oc3c(C)c(O)c4c(O)c(c(/C=N/N5CCN(C)CC5)c(O)c4c3C2=O)NC(=O)/C(C)=C\C=C\[C@H](C)[C@H](O)[C@@H](C)[C@@H](O)[C@@H](C)[C@H](OC(C)=O)[C@@H]1C [Rifampin] 100

====

So I've got a bunch of compounds here, and I need their concentration at 24 h values.
assay_protocol: Tissue concentration of antibiotic after implantation
Assay type: in vivo
setup_conditions: other: implantation, 24 h, Left, read-out: Average Tissue concentration
Give just the number in ng/mL; leave the unit off.

GET /values?readout=concentration at 24 h&item= CO[C@H]1/C=C/O[C@@]2(C)Oc3c(C)c(O)c4c(O)c(c(/C=N/N5CCN(C)CC5)c(O)c4c3C2=O)NC(=O)/C(C)=C\C=C\[C@H](C)[C@H](O)[C@@H](C)[C@@H](O)[C@@H](C)[C@H](OC(C)=O)[C@@H]1C 4040

GET /values?readout=concentration at 24 h&item= CN(C)c1ccc(O)c2c1C[C@H]1C[C@H]3[C@H](N(C)C)C(O)=C(C(N)=O)C(=O)[C@@]3(O)C(O)=C1C2=O 1330

====

assay_protocol: Post implant serum concentration of antibiotic
Type: in vivo
setup_conditions: other: implantation, 6 h
endpoint_label: concentration at 6 h

GET /values?readout=concentration at 6 h&item= CO[C@H]1/C=C/O[C@@]2(C)Oc3c(C)c(O)c4c(O)c(c(/C=N/N5CCN(C)CC5)c(O)c4c3C2=O)NC(=O)/C(C)=C\C=C\[C@H](C)[C@H](O)[C@@H](C)[C@@H](O)[C@@H](C)[C@H](OC(C)=O)[C@@H]1C [Rifampin] 20.8 ng/mL

GET /values?readout=concentration at 6 h&item= CN(C)c1ccc(O)c2c1C[C@H]1C[C@H]3[C@H](N(C)C)C(O)=C(C(N)=O)C(=O)[C@@]3(O)C(O)=C1C2=O [Minocycline] 79.1 ng/mL

====

assay_protocol: Post implant serum concentration of antibiotic
Assay type: in vivo
setup_conditions: other: implantation, 2 h
endpoint_label: concentration at 2 h (ng/mL)
Give just the number in ng/mL; leave the unit off.

GET /values?readout=concentration at 2 h&item= CN(C)c1ccc(O)c2c1C[C@H]1C[C@H]3[C@H](N(C)C)C(O)=C(C(N)=O)C(=O)[C@@]3(O)C(O)=C1C2=O [Minocycline] 46.5

GET /values?readout=concentration at 2 h&item= CO[C@H]1/C=C/O[C@@]2(C)Oc3c(C)c(O)c4c(O)c(c(/C=N/N5CCN(C)CC5)c(O)c4c3C2=O)NC(=O)/C(C)=C\C=C\[C@H](C)[C@H](O)[C@@H](C)[C@@H](O)[C@@H](C)[C@H](OC(C)=O)[C@@H]1C [Rifampin] 27.1
